Reported inhibition is given for each of the following compounds.
molecular target: Gag-Pol polyprotein (Human immunodeficiency virus type 1 group M subtype B (isolate HXB2)); experiment: HIV-1 RT RNase H inhibitor potency, dose response, biochemical, probe assessment (AID 652); settings: HIV-1 RT RNase H enzymatic assay, inhibition, at 50 µM, stronger effect = higher value
quantity: inhibition (%)

>>> numeric_result("CC1(C)Cc2[nH]c(=S)c(C#N)cc2CO1")
71.1
>>> numeric_result("S=C(c1ccc(-c2ccccc2Cl)o1)N1CCOCC1")
92.6
>>> numeric_result("S=C(Nc1ccccn1)c1ccccn1")
85.8
>>> numeric_result("CCOC(=O)C1CCCN(C(=O)Cn2sc3nc(C)cc(C)c3c2=O)C1 (configuration not stated)")
69.6
>>> numeric_result("COC(=O)c1ccc2c(=O)n(Cc3ccco3)c(SCC(=O)Nc3ccc(C)c(Cl)c3)nc2c1")
92.1
>>> numeric_result("Cc1nc(C)c(C(=O)Nc2nc3c(C)cccc3s2)o1")
100
>>> numeric_result("CCCCCC#CCC#CCC#CCC#CCCCC(=O)O")
98
>>> numeric_result("Nc1c(C(=O)N2CCCCC2)sc(=S)n1-c1ccccc1")
83.2
>>> numeric_result("COc1ccc(S(=O)(=O)Nc2ccc(O)c3ccccc23)cc1")
67.3
>>> numeric_result("Cc1cc(C(=O)CSc2nnc(-c3ccc(OC(F)F)cc3)o2)c(C)n1Cc1cccs1")
74.6
>>> numeric_result("Nc1ccc(-c2nnc(-c3ccc(-c4ccccc4)cc3)o2)cc1")
101
>>> numeric_result("COc1ccc(C(=S)N(C)C)cc1OC")
78.6
>>> numeric_result("Cc1ccc(-n2c(N)c(C(=O)N3CCCCC3)sc2=S)cc1")
79.5
>>> numeric_result("O=C(CSc1nc2c([nH]c3ccccc32)c(=O)n1-c1cccc(Cl)c1)N1CCOCC1")
82.5
>>> numeric_result("Cc1ccc2c(SCC(=O)NCc3ccco3)nc(-c3ccc(F)cc3)nc2c1")
79.6
>>> numeric_result("O=c1cc(CN2CCN(c3ccccc3)CC2)c2cc(O)c(-c3ccccc3)cc2o1")
96.1
>>> numeric_result("Cc1cccc(C)c1NC(=O)CSCC(=O)c1ccc(O)c(O)c1")
94.7

---

target: Gag-Pol polyprotein (Human immunodeficiency virus type 1 group M subtype B (isolate HXB2)); experiment: HIV-1 RT RNase H inhibitor potency, dose response, biochemical, probe assessment (AID 652); settings: HIV-1 RT RNase H enzymatic assay, inhibition, at 50 µM, stronger effect = higher value
Output Fulfilled for inhibition not less than 90%; output Not fulfilled otherwise.

>>> assigned_label("c1ccc(Cc2nnc3sc(-c4ccncc4)nn23)cc1")
"Not fulfilled"
>>> assigned_label("Cc1sc2nc(C(C)Nc3ccccc3N3CCOCC3)[nH]c(=O)c2c1C (stereo not given)")
"Not fulfilled"
>>> assigned_label("COc1cc(OC)c(C2CC(=O)N3CN(C)CSC3=C2C#N)cc1OC (stereo not given)")
"Not fulfilled"
>>> assigned_label("COc1cc(C2CC(=O)N3CN(c4ccccc4C)CSC3=C2C#N)cc(OC)c1OC (stereo not given)")
"Fulfilled"

---

target: Gag-Pol polyprotein (Human immunodeficiency virus type 1 group M subtype B (isolate HXB2)) (UniProt P04585); test: HIV-1 RT RNase H inhibitor potency, dose response, biochemical, probe assessment (AID 652); details: HIV-1 RT RNase H enzymatic assay, inhibition, at 50 µM, stronger effect = higher value
Reported inhibition is given for each of the following compounds.
quantity: inhibition (%)

>>> numeric_result("COC(=O)C1=C(C)N=c2s/c(=C3\\C(=O)Nc4ccccc43)c(=O)n2C1c1ccccc1 (stereo not drawn)")
85.1
>>> numeric_result("CN(c1ccccc1)c1ccc(/C=c2\\s/c(=C(/C#N)C(=O)C(C)(C)C)n(Cc3ccco3)c2=O)cc1")
92.9
>>> numeric_result("c1c2c(cc3sc(N4CCOCC4)nc13)OCO2")
78.1
>>> numeric_result("COC(=O)N(c1ccccc1)P1(=S)OCCO1")
81.9
>>> numeric_result("O=C(O)/C=C/c1ccc(O)c(O)c1")
52.1
>>> numeric_result("CCN(CC)C1=CC(=O)OC12CCCCC2")
65.8
>>> numeric_result("COc1cccc(OCC(=O)Nc2c(C(=O)Nc3ccc(OC)cc3OC)oc3ccccc23)c1")
88.5
>>> numeric_result("CC1CCN(S(=O)(=O)c2ccc(NC(=O)Cn3nnc(-c4ccccc4)n3)cc2)CC1")
61.5
>>> numeric_result("CCN(Cc1ccccc1)S(=O)(=O)c1ccc(C(=O)Nc2nnc(-c3ccccc3OC)o2)cc1")
95.8
>>> numeric_result("COc1ccc(N2CCN(Cc3cc(=O)oc4cc5c(cc34)CCCC5)CC2)cc1")
88.8
>>> numeric_result("CCC1CC2(C)NC(=O)c3c(sc4c3CC(C)(C)OC4)N2C1=O (stereo not drawn)")
82.8
>>> numeric_result("CCOC(=O)N(c1ccccc1)P1(=S)OCCO1")
85.5
>>> numeric_result("CCCc1cc(C(=O)Nc2sc3c(c2C#N)CCC3)no1")
92.6

Cited source for all entries: PubChem BioAssay AID652
